test system: HepG2 cells; test: HepG2 cytotoxicity assay; details: HepG2 cytotoxicity unified across screens; >25 set to 25.00
Below, each entry is listed alongside its reported Unified cytotox.
Could you write the number and then its unit?

For orientation, consider the following solved cases.
compound="COc1ccc(-c2cnn3ccc(Nc4cc(OC)c(OC)c(OC)c4)nc23)cc1OC [TCMDC-134383]" assay_endpoint="Unified cytotox" value="12.90 µM"
compound="Cc1cccc2nc(-c3ccc(-c4cccc(CN5CCC(CCN6CCCCC6)CC5)c4)s3)[nH]c12.O=C(O)C(F)(F)F [TCMDC-133923]" assay_endpoint="Unified cytotox" value="3.87 µM"
compound="CN(C)CCNC(=O)c1ccc(-c2cnc3ccc(NCc4ccc(Cl)c(Cl)c4)nn23)cc1 [TCMDC-136678]" assay_endpoint="Unified cytotox" value="16.66 µM"
compound="COc1ccc2nc(-c3cccc(C)n3)nc(Nc3ccncc3)c2c1 [TCMDC-134670]" assay_endpoint="Unified cytotox" value="25.00 µM"

[Q] Fill blank: measured Unified cytotox of the compound COc1cc2nc(NCC3CCN(c4nc(N)c5cc(OC)c(OC)cc5n4)CC3)nc(N)c2cc1OC [TCMDC-138723] is ____.
[A] 25.00 µM

[Q] How about COc1ccc2nc3cc(Cl)ccc3c(NCCCCCCNc3c4ccc(Cl)cc4nc4ccc(OC)cc34)c2c1.Cl.Cl.Cl.Cl [TCMDC-137503] ?
[A] 25.00 µM

[Q] Here is the next compound: Cc1cc(NCCc2ccccc2)nc(NC(=N)Nc2ccccc2Cl)n1 [TCMDC-138370]
[A] 13.60 µM

Where do the numbers come from? From paper PMC6753678.
